MEASURED PARAMETER: melting point

Reference set (4 entries):
| COMPOUND | melting point |
| --- | --- |
| O=C(O)c1cccc2c1ccn2-c1ccnc(N[C@H]2CC[C@H](O)CC2)n1 | 259 to 261 °C |
| Cc1ccc(S(=O)(=O)NCCC2CCC(CC(=O)O)CC2)cc1 (stereo unspecified) | 104 to 105 °C |
| Cc1noc(-c2cn(-c3cccc(-c4ccccc4)c3)cn2)n1 | 163 to 165 °C |
| CCCCCCCCCCCCCCCCCC(=O)OC1CC(C)(C)N(OCC(C)(C)O)C(C)(C)C1 | 51 to 56 °C |

## Task Provide only the value of recorded melting point for COCCOc1cc(N(C)S(=O)(=O)c2cccs2)c2[nH]c(C3=NCC(CCO)S3)cc2c1 (stereo unspecified)
## Result 122 to 123 °C

## Task Provide only the value of recorded melting point for C#CCNC(=O)c1ncn2c1CN(C)C(=O)c1ccccc1-2
## Result 213 to 215 °C

## Task Provide only the value of recorded melting point for O=C1NC(=NC2CCCC2)C(c2ccc3[nH]ccc3c2)N1c1ccc2[nH]cnc2c1 (stereo unspecified)
## Result 210 °C

## Task Provide only the value of recorded melting point for COc1ccc(N2CCOCC2)c2sc(-c3nc4ccc(C)nc4[nH]3)nc12
## Result 200 to 210 °C

###

# maps each entry to its melting point

Reference set (3 entries):
| MOLECULE | melting point |
| --- | --- |
| Oc1ccc2oc(-c3ccc(O)c(F)c3)cc2c1 | 218 to 222 °C |
| N#Cc1nc(C=Cc2cnn(-c3c(Cl)cc(C(F)(F)F)cc3Cl)n2)[nH]c1C#N | 111 to 112 °C |
| CCOc1cc(C(CC(=O)OC)N2Cc3ccccc3C2=O)ccc1OC (stereo not given) | 78 to 80 °C |

## Task Provide only the value of recorded melting point for COC(=O)CCc1ccc(-n2cc(C)n(-c3ccc(C(=N)N)cc3)c2=O)cc1
## Result 95 to 100 °C

## Task Provide only the value of recorded melting point for O=S(=O)(c1ccc(O)c(Br)c1)N1c2ccc(Br)cc2-c2ccccc2C1c1ccccc1 (stereo not given)
## Result 237 to 239 °C

## Task Provide only the value of recorded melting point for O=[N+]([O-])c1ccc(-c2cccnc2)s1
## Result 169 to 171 °C

## Task Provide only the value of recorded melting point for CCOC(=O)CCCc1ccc(CCl)cc1
## Result 152 to 155 °C

## Task Provide only the value of recorded melting point for Cc1ccc2cc(NS(=O)(=O)c3cc(Cl)ccc3Cl)ccc2n1
## Result 125 °C

## Task Provide only the value of recorded melting point for CN1C(=O)CC[C@]2(C)c3ccc(-c4ccc5c(c4)OCCO5)cc3CC[C@@H]12
## Result 183 to 189 °C

## Task Provide only the value of recorded melting point for Cc1c(NC(=O)c2ccc(-c3ccccc3)cc2)ccc2cc(CN3CCCC3)cnc12
## Result 184 to 186 °C

###

# maps each entry to its melting point

Reference set (6 entries):
| COMPOUND | melting point |
| --- | --- |
| Cc1nc(-c2ccc(OCC(C)C)c(Br)c2)sc1C(=O)O | 200 to 202 °C |
| c1ccc2c(c1)C[C@H]1Nc3ccccc3[C@@H]21 (relative stereo) | 85 to 86 °C |
| Cc1ccccc1C(=O)NC(NC(=S)Nc1cccnc1)C(C)(C)C (centres undefined) | 186 to 187 °C |
| CCOC(=O)c1[nH]c2ccccc2c1-c1ccc([N+](=O)[O-])cc1 | 218 to 220 °C |
| CCN1c2ncccc2C(=O)Nc2c(C)cc(N3CCCC(CO)C3)nc21 (centres undefined) | 194 to 197 °C |
| OC(COc1cccc(-c2cc[nH]n2)c1)CN1CCN(c2ccc(Cl)cc2)CC1 (centres undefined) | 152 to 153 °C |

## Task Provide only the value of recorded melting point for O=C(Nc1ccc(S(=O)(=O)C(F)(F)F)cc1Cl)c1cc(Cl)c2ccccc2c1O
## Result 234 °C

## Task Provide only the value of recorded melting point for C=CCC1(C(=O)OC)C(=O)Nc2ccccc2CC1c1ccc(OC)cc1 (centres undefined)
## Result 175 to 176 °C

## Task Provide only the value of recorded melting point for COC(=O)c1ncc(Nc2cc(C)[nH]n2)nc1Nc1ccc(Cl)cc1
## Result 259 to 261 °C

###

# maps each entry to its melting point

Reference set (5 entries):
| MOLECULE | melting point |
| --- | --- |
| CC(=NO)NC/C(F)=C\CC[C@H](N)C(=O)O | 198 to 200 °C |
| CSc1nc(-c2ccc(C#N)cc2)cn1-c1ccc(C#N)cc1 | 209 to 219 °C |
| CC(C)(C)NS(=O)(=O)c1cnc(-c2cn(-c3nc(-c4ccc(C(F)(F)F)cc4)cc(C(F)(F)F)n3)cn2)s1 | 281 °C |
| CNS(=O)(=O)c1ccc(C2=NC(C)(C)Cc3cc(OC)c4c(c32)CC(C)(C)O4)cc1 | 146 to 148 °C |
| Cc1nc2c(N)nc3ccccc3c2n1CCCNC(=O)C(C)C | 239 to 240 °C |

## Task Provide only the value of recorded melting point for Fc1cccc(F)c1N1CS/C1=N/N=C\c1ccc(-c2ncn(-c3ccc(OC(F)(F)F)cc3)n2)cc1
## Result 144 to 146 °C

## Task Provide only the value of recorded melting point for O=C(Nc1nc(-c2ccco2)c(C(=O)C2CCOCC2)s1)c1ccc(F)cc1
## Result 131 to 132 °C

## Task Provide only the value of recorded melting point for C#CCN1C(=O)CC(c2ccccc2)N=C1c1ccccc1 (centres undefined)
## Result 74.5 to 77 °C

## Task Provide only the value of recorded melting point for CC(=O)Nc1ccc([N+](=O)[O-])cc1-c1cc([N+](=O)[O-])ccc1NC(C)=O
## Result 263 to 265 °C

## Task Provide only the value of recorded melting point for CSc1ccc(CSc2nnc(-c3ccc4c(c3)CCO4)o2)cc1C(F)(F)F
## Result 108 to 109 °C

## Task Provide only the value of recorded melting point for COc1ccc2c(c1)CCC(CN1CCC(O)(Cc3ccc(C)cc3)CC1)C2 (racemic)
## Result 91 to 94 °C

## Task Provide only the value of recorded melting point for CN[C@@H]1CCCC[C@H]1NC (relative stereo)
## Result 17 °C

## Task Provide only the value of recorded melting point for CCOP(=O)(CC(=O)Nc1cc2c(Nc3ccc(Br)c(Br)c3)ncnc2cn1)OCC
## Result 120 to 124 °C

## Task Provide only the value of recorded melting point for NC(=O)NC1CCC(OC(=O)c2ccccc2)c2sccc21 (centres undefined)
## Result 199 to 205 °C

## Task Provide only the value of recorded melting point for CN(C)CCOc1ccc(-c2cccc(N)n2)c2ccccc12
## Result 98 to 106 °C

## Task Provide only the value of recorded melting point for N[C@@H](Cc1cccc(OC(F)(F)C(F)F)c1)[C@H](O)c1ccc(Oc2ccccc2)cc1 (racemic)
## Result 85 to 86 °C

## Task Provide only the value of recorded melting point for CCCCOc1cc(C=CC(=O)O)n(Cc2ccc(Cl)cc2Cl)n1
## Result 176 to 179 °C

## Task Provide only the value of recorded melting point for CN1CCN2c3ncc(Br)cc3Cc3ccccc3C2C1 (centres undefined)
## Result 126 to 128 °C

## Task Provide only the value of recorded melting point for CS(=O)(=O)Nc1ccccc1Sc1c(C(=O)O)sc2cc(OCc3cccnc3)ccc12
## Result 258 to 260 °C

## Task Provide only the value of recorded melting point for COC(=O)C1=C(C)NC(C(OC)OC)=C(C(=O)OC)C1c1cccc2c(=O)c(C)c(-c3ccccc3)oc12 (centres undefined)
## Result 166 to 168 °C

## Task Provide only the value of recorded melting point for C=CCON=C(C)c1cccc(Oc2nc(OC)cc(OC)n2)c1C(=O)OC
## Result 76 to 78 °C

## Task Provide only the value of recorded melting point for N#Cc1ccc(OCc2ccsc2)cc1OC(C(=O)O)c1ccccc1Br (racemic)
## Result 89 to 98 °C

## Task Provide only the value of recorded melting point for Cc1cccc(-c2n[nH]cc2-c2ccc(F)c(-c3ccc(C(C)(C)O)cn3)c2)n1
## Result 169 to 172 °C

## Task Provide only the value of recorded melting point for CC(C)(C)OC(=O)NCCCc1ccc(OCCC2Oc3ccccc3N(Cc3cccc(Cl)c3)C2=O)cc1 (centres undefined)
## Result 75 to 81 °C

## Task Provide only the value of recorded melting point for C=Cc1cc(O)cc2nc(-c3ccc(O)cc3)oc12
## Result 249 to 250 °C

###

MEASURED PARAMETER: melting point (°C)

A = O=C(CCCC(=O)N1C(=O)OC[C@@H]1c1ccccc1)c1ccc(F)cc1
B = O=C(c1nc(-c2ccccc2)nc2ccccc12)N1CCOCC1
## Task # argmax over melting point for candidates A and B Select an item and report its label.
## Result B

These entries and their values trace back to a melting point compilation (Tetko et al.; mined from patent text by program, amines drawn as free bases though some values may be those of a salt).
